FYI, the data here is from patent US20250011363A1.

- target-system: acetylcholine receptor
- test-description: SPR, AchR on chip, peptide 10 uM
measurement-type: Binding affinity (RU)

Here's what some known entries look like.
KSRQR [5mer-310] = 78
KRFYK [5mer-334] = 64
RWILR [5mer-338] = 61

(I) KRFLR [5mer-4]
(II) RWQLR [5mer-330]
Req: Two entries are listed, I and II . Which one carries the higher Binding affinity (RU)? Refer to your chosen item by its label in the answer.
Resp: II
(II: 86 RU, I: 58 RU)
